Biological target: trypsin (Sus scrofa, UniProt P00761)
Construct: purchased Sigma-Aldrich; host or cells: porcine pancreas
Sequence (P00761 9-231): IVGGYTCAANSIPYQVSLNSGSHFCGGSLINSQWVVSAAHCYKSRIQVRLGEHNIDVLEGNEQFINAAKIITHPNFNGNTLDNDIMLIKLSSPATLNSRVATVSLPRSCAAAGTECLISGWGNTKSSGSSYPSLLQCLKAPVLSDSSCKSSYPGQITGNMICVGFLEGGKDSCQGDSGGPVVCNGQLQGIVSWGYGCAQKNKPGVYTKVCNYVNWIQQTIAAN
Assay: Stability of peptides under tryptic degradation, HPLC
Format: in vitro ADME
Conditions: pig, trypsin from porcine pancreas; porcine pancreas trypsin (1 µL of 1 mg/mL); peptide 2 mg in 800 µL 50 mM Tris pH 8.0; 37 °C; 30 min; RP-HPLC, 214 nm; relative to time zero; n = 3; read-out: Degradation of the peptide by trypsin after 30 min
MEASUREMENT KIND: metabolised at 0.5 h, 2.5 mg/mL

Requested read-out: metabolised at 0.5 h, 2.5 mg/mL. Entry: Ac-GLQRMVLVDLKGGYGRKKRRQRRR-NH2 [CVP-198]
~70%
